assay: total protein half-life in vivo (active degradation + dilution); higher = more stable protein; conditions: wild type E. coli NCM3722; growth: N-lim chemostat; doubling time 6 h
Answer each item with its documented total protein half-life in vivo.

Problem: Return reported total protein half-life in vivo; argument: MWSEYSLEVVDAVARNGSFSAAAQELHRVPSAVSYTVRQLEEWLAVPLFERRHRDVELTAAGAWFLKEGRSVVKKMQITRQQCQQIANGWRGQLAIAVDNIVRPERTRQMIVDFYRHFDDVELLVFQEVFNGVWDALSDGRVELAIGATRAIPVGGRYAFRDMGMLSWSCVVASHHPLALMDGPFSDDTLRNWPSLVREDTSRTLPKRITWLLDNQKRVVVPDWESSATCISAGLCIGMVPTHFAKPWLNEGKWVALELENPFPDSACCLTWQQNDMSPALTWLLEYLGDSETLNKEWLREPEETPATGD [P0ACR2]
Solution: 4.8 h

Problem: Quick one: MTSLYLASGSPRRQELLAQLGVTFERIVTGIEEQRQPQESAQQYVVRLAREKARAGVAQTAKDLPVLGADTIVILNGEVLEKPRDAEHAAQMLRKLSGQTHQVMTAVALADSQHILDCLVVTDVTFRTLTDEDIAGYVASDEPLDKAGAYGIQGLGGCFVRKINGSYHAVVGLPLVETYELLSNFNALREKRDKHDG
Solution: 3.15 h

Problem: Quick one: MSTTNHDHHIYVLMGVSGSGKSAVASEVAHQLHAAFLDGDFLHPRRNIEKMASGEPLNDDDRKPWLQALNDAAFAMQRTNKVSLIVCSALKKHYRDLLREGNPNLSFIYLKGDFDVIESRLKARKGHFFKTQMLVTQFETLQEPGADETDVLVVDIDQPLEGVVASTIEVIKKGK
Solution: 3.92 h

Problem: Quick one: MIEFSHVSKLFGAQKAVNDLNLNFQEGSFSVLIGTSGSGKSTTLKMINRLVEHDSGEIRFAGEEIRSLPVLELRRRMGYAIQSIGLFPHWSVAQNIATVPQLQKWSRARIDDRIDELMALLGLESNLRERYPHQLSGGQQQRVGVARALAADPQVLLMDEPFGALDPVTRGALQQEMTRIHRLLGRTIVLVTHDIDEALRLAEHLVLMDHGEVVQQGNPLTMLTRPANDFVRQFFGRSELGVRLLSLRSVADYVRREERADGEALAEEMTLRDALSLFVARGCEVLPVVNMQGQPCGTLHFQDLLVEA
Solution: 5.05 h

Problem: Quick one: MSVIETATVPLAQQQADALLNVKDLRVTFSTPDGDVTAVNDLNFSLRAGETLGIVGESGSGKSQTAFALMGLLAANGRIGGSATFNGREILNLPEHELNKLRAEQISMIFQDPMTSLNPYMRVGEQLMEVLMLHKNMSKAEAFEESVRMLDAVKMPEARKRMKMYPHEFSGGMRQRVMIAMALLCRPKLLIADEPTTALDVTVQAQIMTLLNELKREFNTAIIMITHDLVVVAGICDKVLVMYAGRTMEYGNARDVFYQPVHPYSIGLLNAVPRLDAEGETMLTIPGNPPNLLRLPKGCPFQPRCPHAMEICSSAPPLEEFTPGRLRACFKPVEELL
Solution: 5.29 h

Problem: Quick one: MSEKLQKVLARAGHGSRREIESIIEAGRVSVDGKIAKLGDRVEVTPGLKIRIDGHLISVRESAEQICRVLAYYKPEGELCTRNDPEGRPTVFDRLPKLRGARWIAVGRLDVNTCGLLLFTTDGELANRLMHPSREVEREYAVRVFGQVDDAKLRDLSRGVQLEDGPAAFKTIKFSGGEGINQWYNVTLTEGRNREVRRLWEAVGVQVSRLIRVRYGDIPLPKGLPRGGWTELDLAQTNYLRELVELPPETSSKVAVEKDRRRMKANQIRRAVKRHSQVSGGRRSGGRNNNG
Solution: 6.18 h
